Ref: the supplement of paper PMC13380429

Tested on: Vero E6 infected with SARS-CoV-2
METHOD_DESCRIPTION: SARS-CoV-2 infection rate relative to infected DMSO; higher = more infection, active = 60 or less
EXPERIMENTAL_PARAMETERS: 24 h
ATTRIBUTE_MEASURED: SARS-CoV-2 infection rate (%)
Quick reminder: number only, in %, skip the unit.

Return reported SARS-CoV-2 infection rate for target or system Vero E6 infected with SARS-CoV-2, item COc1c(O[C@@H]2O[C@H](CO)[C@@H](O)[C@H](O)[C@H]2O)cc2c(c1OC)-c1ccc(SC)c(=O)cc1[C@@H](NC(C)=O)CC2 [thiocolchicoside] (10 µM) .
114

Return reported SARS-CoV-2 infection rate for target or system Vero E6 infected with SARS-CoV-2, item COC(=O)c1c(C)[nH]c(C)c1C(=O)c1ccccc1Cc1ccccc1 (10 µM) .
118

Return reported SARS-CoV-2 infection rate for target or system Vero E6 infected with SARS-CoV-2, item COC(=O)c1ccc2c(c1)NC(=O)/C2=C(\Nc1ccc(N(C)C(=O)CN2CCN(C)CC2)cc1)c1ccccc1 [nintedanib] (10 µM) .
108

Return reported SARS-CoV-2 infection rate for target or system Vero E6 infected with SARS-CoV-2, item CN(Cc1ccccc1)C(=O)[C@H](Cc1ccc2ccccc2c1)NC(=O)[C@@H]1C[C@@H](O)CN1C(=O)c1cn(C)c2ccccc12 (10 µM) .
104

Return reported SARS-CoV-2 infection rate for target or system Vero E6 infected with SARS-CoV-2, item Nc1ncnc2c1ncn2[C@@H]1O[C@H](COP(=O)(O)O)[C@@H](O)[C@H]1O [adenosine-phosphate] (10 µM) .
113

Return reported SARS-CoV-2 infection rate for target or system Vero E6 infected with SARS-CoV-2, item NCCCCCNCC12CC3CC(CC(C3)C1)C2 (10 µM) .
97.5

Return reported SARS-CoV-2 infection rate for target or system Vero E6 infected with SARS-CoV-2, item Nc1nccc(-c2c(-c3ccc(F)cc3)ncn2C2CCCCC2)n1 (0.833333 µM) .
103

###

System: Vero E6 infected with SARS-CoV-2
METHOD_DESCRIPTION: inhibition of SARS-CoV-2 cytopathic effect; higher = more antiviral protection, active = above 15
EXPERIMENTAL_PARAMETERS: 8.33 nM; 48 h
ATTRIBUTE_MEASURED: inhibition of SARS-CoV-2 cytopathic effect (%)
Quick reminder: number only, in %, skip the unit.

Complete the entry with inhibition of SARS-CoV-2 cytopathic effect for CCN1CCN(c2cc(-c3ccc(F)cc3)c3c(n2)CCCCCC3)CC1
2.25

Complete the entry with inhibition of SARS-CoV-2 cytopathic effect for CCOC(=O)OC(C)OC1=C(C(=O)Nc2ccccn2)N(C)S(=O)(=O)c2ccccc21 (stereo not drawn)
-0.58

Complete the entry with inhibition of SARS-CoV-2 cytopathic effect for CN(C)CCN1C(=O)c2cccc3cc(N)cc(c23)C1=O [amonafide]
2.14

Complete the entry with inhibition of SARS-CoV-2 cytopathic effect for COc1ccc(-c2coc3cc(O)cc(O)c3c2=O)cc1
-0.05

Complete the entry with inhibition of SARS-CoV-2 cytopathic effect for COc1cc(N2CCC(N)CC2)ccc1Nc1ncc(Cl)c(-c2c[nH]c3ccccc23)n1
0.49

Complete the entry with inhibition of SARS-CoV-2 cytopathic effect for Cc1n[nH]c2ccc(-c3cncc(OC[C@@H](N)Cc4ccccc4)c3)cc12
0.14

Complete the entry with inhibition of SARS-CoV-2 cytopathic effect for Nc1nc2c(ncn2[C@@H]2O[C@H](CO)[C@@H](O)[C@H]2O)c(=O)[nH]1
-0.4

Complete the entry with inhibition of SARS-CoV-2 cytopathic effect for CC(=O)O[C@]1(C(C)=O)CC[C@H]2[C@@H]3C=C(Cl)C4=CC(=O)CC[C@]4(C)[C@H]3CC[C@@]21C [chlormadinone-acetate]
-12.7
